// reported IC50 per item
# tested_target: human recombinant SIRT2 deacetylase (Homo sapiens (Human), UniProt Q8IXJ6)
# Sequence (Q8IXJ6 whole entry): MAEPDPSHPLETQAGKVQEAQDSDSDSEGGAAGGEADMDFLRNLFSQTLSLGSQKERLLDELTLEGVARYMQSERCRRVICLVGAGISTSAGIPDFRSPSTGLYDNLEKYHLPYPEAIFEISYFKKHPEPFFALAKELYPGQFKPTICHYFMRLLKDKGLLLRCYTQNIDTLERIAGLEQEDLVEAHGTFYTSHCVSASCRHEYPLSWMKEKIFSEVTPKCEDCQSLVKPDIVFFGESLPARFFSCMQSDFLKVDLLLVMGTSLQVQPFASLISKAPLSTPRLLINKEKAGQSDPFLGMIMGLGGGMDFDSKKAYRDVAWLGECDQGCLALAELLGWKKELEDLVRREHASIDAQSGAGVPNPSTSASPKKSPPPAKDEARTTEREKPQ
# test_name: Sirtuin biochemical deacetylation assay, SIRT2
# applied_conditions: Table 3
# output: bare number, implied unit µM

Some compounds with recorded IC50:
>  <compound>
O=[N+]([O-])c1ccc(Sc2nnc(-c3ccc(Cl)cc3)n2-c2ccccc2)nc1 [MIND4-17-33]

>  <reported_property>
IC50

>  <reported>
7.5

$$$$
>  <compound>
O=[N+]([O-])c1ccc(Sc2nnc(-c3ccccc3)n2-c2ccccc2)c2ncccc12 [MIND4A]

>  <reported_property>
IC50

>  <reported>
7.5

$$$$
>  <compound>
c1ccc(CSc2nnc(COc3cccc4ccccc34)n2-c2ccccc2)cc1 [MIND4-11]

>  <reported_property>
IC50

>  <reported>
4.5

$$$$

Task: Report IC50 for O=[N+]([O-])c1cnc(Sc2nnc(-c3ccc(Cl)cc3)n2-c2ccccc2)c(Br)c1 [MIND4-17-56] please.
Output: 0.75

Task: Now give it for O=[N+]([O-])c1ccc(Sc2nnc(COc3ccccc3)n2-c2ccccc2)c2ncccc12 [MIND4] too.
Output: 3.5

Task: Would you kindly repeat that for O=[N+]([O-])c1ccc(CSc2nnc(COc3ccccc3)n2-c2ccccc2)cc1 [MIND4-21] ?
Output: 10

----------
# tested_target: recombinant human KEAP1 protein (Homo sapiens (Human), UniProt Q14145)
# Sequence (Q14145 whole entry): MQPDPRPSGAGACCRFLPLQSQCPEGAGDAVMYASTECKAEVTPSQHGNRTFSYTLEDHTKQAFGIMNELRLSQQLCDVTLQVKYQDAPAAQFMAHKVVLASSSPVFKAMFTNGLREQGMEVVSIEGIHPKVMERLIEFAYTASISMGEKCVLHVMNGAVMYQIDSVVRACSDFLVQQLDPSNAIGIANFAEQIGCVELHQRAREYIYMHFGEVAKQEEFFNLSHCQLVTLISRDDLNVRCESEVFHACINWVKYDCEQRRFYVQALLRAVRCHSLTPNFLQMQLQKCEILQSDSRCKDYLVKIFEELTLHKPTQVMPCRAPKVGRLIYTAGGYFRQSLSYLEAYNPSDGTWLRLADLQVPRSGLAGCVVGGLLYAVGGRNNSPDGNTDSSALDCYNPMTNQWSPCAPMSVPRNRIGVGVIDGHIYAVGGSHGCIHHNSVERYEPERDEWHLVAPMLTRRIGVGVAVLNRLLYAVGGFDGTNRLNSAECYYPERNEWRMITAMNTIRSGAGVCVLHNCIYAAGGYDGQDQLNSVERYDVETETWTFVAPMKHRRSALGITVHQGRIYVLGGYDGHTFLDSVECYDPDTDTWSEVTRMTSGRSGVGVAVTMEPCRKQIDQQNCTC
# test_name: SPR (Surface Plasmon Resonance) Biacore binding assay
// reported pKd per item
Notebook: values listed as pKd are -log10 of the concentration (mol/L).

>  <sample_smiles>
O=[N+]([O-])c1ccc(Sc2nnc(COc3ccccc3)n2-c2ccccc2)nc1

>  <pKd>
4.78

$$$$

Consider the record given below.
Task: Could you tell me which pKd is on file for O=[N+]([O-])c1ccc(Sc2nnc(COc3ccccc3)n2-c2ccccc2)c2ncccc12 ?
Output: 4.64

----------
# Tested on: NRF2/KEAP1 in MEFs
# test_name: NQO1 and NRF2 levels in mouse embryonic fibroblasts (MEFs), western blot
# Type: cell-based
# applied_conditions: wild-type MEFs, 5 hr exposure
reported_property: Accumulation of total NRF2 protein

>  <molecule>
O=[N+]([O-])c1ccc(Sc2nnc(COc3ccccc3)n2-c2ccccc2)c2ncccc12

>  <reported>
to much lesser extent

$$$$
>  <molecule>
C[S+]([O-])CCCCN=C=S (stereo not shown) [sulforaphane, reference compound]

>  <reported>
readily detectable

$$$$
>  <molecule>
O=[N+]([O-])c1ccc(Sc2nnc(COc3ccccc3)n2-c2ccccc2)nc1

>  <reported>
readily detectable

$$$$
>  <molecule>
O=[N+]([O-])c1ccc(Sc2nnc(COc3ccccc3)n2-c2ccccc2)c2cccnc12

>  <reported>
to much lesser extent

$$$$

----------
# test_name: Detection of MIND4 in mouse brain after escalated i.p. dosing
# Assay type: in vivo
# applied_conditions: brain cortex, intraperitoneal, i.p. daily, escalated 50 to 275 mg/kg, 2 hours after last dose, HPLC, read-out: Concentration in wild type mouse cortices
reported_property: concentration at 2 h

Task: Which value of concentration at 2 h has been reported for O=[N+]([O-])c1ccc(Sc2nnc(COc3ccccc3)n2-c2ccccc2)c2ncccc12 in the records?
Output: ~500 nM

----------
# IC50 per entry
# tested_target: human recombinant SIRT2 deacetylase (Homo sapiens (Human), UniProt Q8IXJ6)
# test_name: Sirtuin biochemical deacetylation assay, SIRT2
# applied_conditions: Table 1
The response must be a number in µM with no trailing unit.

For orientation, consider the following solved cases.
>  <sample_smiles>
c1ccc(CSc2nnc(COc3cccc4ccccc34)n2-c2ccccc2)cc1

>  <reported_property>
IC50

>  <reported>
4.5

$$$$
>  <sample_smiles>
c1ccc(CSc2nnc(COc3ccccc3)n2-c2ccccc2)cc1

>  <reported_property>
IC50

>  <reported>
7

$$$$
>  <sample_smiles>
Clc1ccc(-n2c(COc3cccc4ccccc34)nnc2SCc2ccccc2)cc1

>  <reported_property>
IC50

>  <reported>
12

$$$$

Continue with the compound presented below.
Task: Need IC50 of c1ccc(CSc2nnc(COc3cccc4ccccc34)n2Cc2ccccc2)cc1 , thanks.
Output: 6

----------
# tested_target: recombinant human KEAP1 protein (Homo sapiens (Human), UniProt Q14145)
# test_name: SPR (Surface Plasmon Resonance) Biacore binding assay
# applied_conditions: 25° C., kinetic analysis
In this section we review reported Kd values for a set of compounds.
Could you give me the number in µM? Just the number is fine.

>  <compound>
O=[N+]([O-])c1ccc(Sc2nnc(COc3ccccc3)n2-c2ccccc2)c2ncccc12 [MIND4]

>  <reported_property>
Kd

>  <unit_tag>
µM

>  <reported>
22.8

$$$$

Next compound, please.
Task: Name the recorded Kd for O=[N+]([O-])c1ccc(Sc2nnc(COc3ccccc3)n2-c2ccccc2)nc1 [MIND4-17] .
Output: 16.5

----------
This section presents compounds with their documented pIC50 values.
# tested_target: human recombinant SIRT2 deacetylase (Homo sapiens (Human), UniProt Q8IXJ6)
# test_name: Sirtuin biochemical deacetylation assay, SIRT2
# applied_conditions: Table 3
pIC50: −log10 of the molar value.

Task: Consider the compound shown here: O=[N+]([O-])c1ccc(Sc2nnc(COc3ccccc3)n2-c2ccccc2)nc1 What is its recorded pIC50?
Output: < 4.30

Task: // repeat for Cn1cnnc1Sc1ccc([N+](=O)[O-])c2cccnc12 and report
Output: < 4.30

Task: Same lookup for O=[N+]([O-])c1ccc(Sc2nnc(COc3ccccc3)[nH]2)nc1 , please.
Output: < 4.30

Task: Now try O=[N+]([O-])c1ccc(Sc2nnc(Cc3ccccc3)n2-c2ccccc2)nc1 .
Output: < 4.30

Task: Do the same for O=[N+]([O-])c1ccc(Sc2nnc(COc3ccccc3)n2-c2ccccc2)c2cccnc12 please
Output: < 4.70

----------
# tested_target: human recombinant SIRT2 deacetylase (Homo sapiens (Human), UniProt Q8IXJ6)
# test_name: Sirtuin biochemical deacetylation assay, SIRT2
# applied_conditions: Table 1
reported_property: IC50 (µM)
# number only, unit µM dropped from output

>  <sample_smiles>
COc1ccc(CSc2nnc(COc3cccc4ccccc34)n2Cc2ccccc2)cc1

>  <tested_target>
human recombinant SIRT2 deacetylase (Homo sapiens (Human), UniProt Q8IXJ6)

>  <unit_tag>
µM

>  <reported>
9

$$$$
>  <sample_smiles>
c1ccc(CSc2nnc(COc3cccc4cccnc34)n2-c2ccccc2)cc1

>  <tested_target>
human recombinant SIRT2 deacetylase (Homo sapiens (Human), UniProt Q8IXJ6)

>  <unit_tag>
µM

>  <reported>
9

$$$$
>  <sample_smiles>
Brc1cccc(CSc2nnc(COc3ccccc3)n2-c2ccccc2)c1

>  <tested_target>
human recombinant SIRT2 deacetylase (Homo sapiens (Human), UniProt Q8IXJ6)

>  <unit_tag>
µM

>  <reported>
5

$$$$
>  <sample_smiles>
O=[N+]([O-])c1ccc(CSc2nnc(COc3ccccc3)n2-c2ccccc2)cc1

>  <tested_target>
human recombinant SIRT2 deacetylase (Homo sapiens (Human), UniProt Q8IXJ6)

>  <unit_tag>
µM

>  <reported>
10

$$$$

Next, consider the following compound.
Task: Query IC50 on human recombinant SIRT2 deacetylase (Homo sapiens (Human), UniProt Q8IXJ6) for O=[N+]([O-])c1ccc(Sc2nnc(COc3ccccc3)n2-c2ccccc2)c2ncccc12
Output: 1.7
